target or test system: T1, Cathepsin B (exo-Cat B cleavage) (Homo sapiens, UniProt P07858)
T1 construct: purchased R&D Systems, Bio-Techne AG 953-CY-010
assay overview: Cat B-induced cleavage study (in vitro enzymatic cleavage assay, UHPLC-MS/MS)
Type: biochemical
test context: human, recombinant human Cathepsin B, pH 5; read-out: T1/2 (cleavage by exo-Cat B)
quantity measured: half-life

Input line: // lookup half-life | system=T1, Cathepsin B (exo-Cat B cleavage) (Homo sapiens, UniProt P07858) | key= COc1cc2cc(c1Cl)N(C)C(=O)C[C@H](OC(=O)[C@H](C)N(C)C(=O)CCSC1CC(=O)N(CC3CCC(C(=O)N[C@@H](CCCNC(N)=O)C(=O)N[C@@H](CCCCNC(=O)CCOCCOCCOCCOCCOCCNC(=O)CN4C(=O)CC(SC[C@H](NC(C)=O)C(=O)O)C4=O)C(=O)N[C@@H](Cc4ccc(O)cc4)C(=O)O)CC3)C1=O)[C@]1(C)O[C@H]1[C@H](C)[C@@H]1C[C@@](O)(NC(=O)O1)[C@H](OC)/C=C/C=C(\C)C2 (some centres unmarked)
Output line: ≤ 1 min

Input line: // lookup half-life | system=T1, Cathepsin B (exo-Cat B cleavage) (Homo sapiens, UniProt P07858) | key= COc1cc2cc(c1Cl)N(C)C(=O)C[C@H](OC(=O)[C@H](C)N(C)C(=O)CCSC1CC(=O)N(CC3CCC(C(=O)N[C@@H](Cc4ccccc4)C(=O)N[C@@H](CCCNC(N)=O)C(=O)N[C@@H](CCCCNC(=O)CCOCCOCCOCCOCCOCCNC(=O)CN4C(=O)CC(SC[C@H](NC(C)=O)C(=O)O)C4=O)C(=O)N[C@@H](Cc4ccc(O)cc4)C(=O)O)CC3)C1=O)[C@]1(C)O[C@H]1[C@H](C)[C@@H]1C[C@@](O)(NC(=O)O1)[C@H](OC)/C=C/C=C(\C)C2 (some centres unmarked)
Output line: ≤ 1 min

Hello, the source for this data is patent US20250249113A1, in case you need it.
